- System: MDA-N
- assay.remarks: NCI tumour cell line growth inhibition, 48 h
The source made the active and inactive calls. Rule as the data show it: active = GI50 up to about 1.1 µM and inactive = higher.
Labels: active, inactive

- C=C1C(=O)OC2/C=C(\C)CC/C=C(/C)CC(OC(=O)/C(=C/CO)CO)C12 (stereo not given): inactive
- Cc1nn(C(=O)Cc2ccccc2)c2c1C(c1ccc(N(C)C)cc1)SC(=N)N2 (stereo not given): inactive
- CC1SCc2nc3ccccc3n21 (stereo not given): inactive
- c1ccc(CNCCN2CCNCC2)nc1: inactive
- CC(C)c1ccc(C2NC(S)=NC3=C2c2ccccc2C3=O)cc1 (stereo not given): inactive
- Cn1c(=O)c2sc3c4sc5c(=O)n(C)c6ccccc6c5c4sc3c2c2ccccc21: inactive
- O=C(Nc1ccc(F)cc1)c1cc2ccc(O)cc2o/c1=N\c1ccccc1F: inactive
- Cc1c2oc3c(C)cc(F)c(C(=O)NC4C(=O)NC(C(C)C)C(=O)N5CCCC5C(=O)N(C)CC(=O)N(C)C(C(C)C)C(=O)OC4C)c3nc-2c(C(=O)NC2C(=O)NC(C(C)C)C(=O)N3CCCC3C(=O)N(C)CC(=O)N(C)C(C(C)C)C(=O)OC2C)c(N)c1=O (stereo not given): active
- CC(C)CCc1c(Cl)nc(Cl)nc1Cl: inactive
- COc1ccc(/C(=N/OCCCC(=O)O)c2cccs2)cc1: inactive

----------
Each item that follows carries a reported GI50.
- Tested on: A549
- assay.remarks: NCI tumour cell line growth inhibition, 48 h
Activity calls are given as the source filed them. Cut-off read from the data, not from the text of the source: active = GI50 up to about 1.1 µM and inactive = higher.
reported.metric: GI50

• COC(=O)C1=C(N)C2=C(N)Oc3ccccc3C2CC1=C(C#N)C#N (stereo not drawn) = 32.6 µM (inactive)
• O=C(NCc1ccncc1)C1COc2cc(-c3cc(=O)c4ccccc4o3)ccc2O1 (stereo not drawn) = > 100 µM (inactive)
• NC(=O)c1ncn(C2OC(CO)C(O)C2O)c1NC=O (stereo not drawn) = > 100 µM (inactive)

----------
- System: OVCAR-8
- assay.remarks: NCI tumour cell line growth inhibition, 48 h
Calls of active or inactive are those of the source. Cut-off read from the data, not from the text of the source: active = GI50 up to about 1.1 µM and inactive = higher.
Labels: active, inactive

• CCc1ccc(/C(C)=N/NC(N)=S)cc1 = inactive
• COc1ccc(OC)c(NC(=O)C(=O)CC(=O)c2sc(-n3nc(-c4ccccc4)cc3-c3ccccc3)nc2C)c1 = inactive
• O=C1Nc2ccccc2/C1=N/NC(=S)NCc1ccccn1 = active
• CCOP(=O)(OCC)C(Nc1ccc(F)cc1)c1ccccc1 (centres undefined) = inactive

----------
Each item that follows carries a reported GI50.
- Test system: TK-10
- assay.remarks: NCI tumour cell line growth inhibition, 48 h
The source made the active and inactive calls. No stated cut-off is given here; in the data, active = GI50 up to about 1.1 µM and inactive = higher.
reported.metric: GI50

- O=c1[nH]c2ccc(CC(=S)N3CCOCC3)cc2s1: > 100 µM (inactive)
- CCc1nc2ccc(/N=N/N(C)C)cc2[nH]1: > 100 µM (inactive)
- O=S(=O)(O)C(c1ccccc1)C(O)c1ccccc1 (stereo not given): > 100 µM (inactive)
- CCOC(=O)CCC(C(=O)OCC)n1nnc2cc(Nc3c(C)[n+]([O-])c4ccc(Cl)cc4[n+]3[O-])ccc21 (stereo not given): > 100 µM (inactive)
- O=c1[nH]c(=O)n(C/C=C/CO)nc1Br: > 100 µM (inactive)
- CC(C)(C)c1cc(/C=C(\C#N)C(=O)NCCO)cc(C(C)(C)C)c1O: 22.3 µM (inactive)
- CC1N(C)C(=O)OC12CCN(CCCC(=O)c1ccc(F)cc1)CC2 (stereo not given): > 100 µM (inactive)
- CC(C)(CCCCC(C)(C)NC1=NCCO1)NC1=NCCO1: > 10 µM (inactive)
- O=C(CCC(=O)Nc1ccc(Cl)c(Cl)c1)CC(=O)c1ccc(Br)cc1: > 100 µM (inactive)
- CC(C)(C)OC(=O)N(O)[C@@H]1C=C[C@H](n2cnc3c(N)ncnc32)C1: > 100 µM (inactive)

Recorded values, source ChEMBL document CHEMBL1201862.
